The values you see were collected from patent US6670363B1.

Test system: Candida
protocol_summary: In vitro MIC, NCCLS M27A, Candida species
Type: cell-based
Set-up: unit not given beside the values
details: Candida albicans strain Y-01-19
Criterion: MIC, Candida albicans Y-01-19 strictly under 0.2. Met: YES. Not met: NO.

compound	group_label
O=c1n(-c2ccc(N3CCN(c4ccccc4)CC3)cc2)cnn1CC(O)(Cn1cncn1)c1ccc(F)cc1F (stereo not shown)	YES
Cc1ccc(N2CCN(c3ccc(-n4cnn([C@H](C)[C@@](O)(Cn5cncn5)c5ccc(F)cc5F)c4=O)cc3)CC2)cc1C	NO
Cc1nn([C@H](C)[C@](O)(Cn2cncn2)c2ccc(F)cc2F)c(=O)n1-c1ccc(N2CCN(c3cc(Cl)cc(Cl)c3)CC2)cc1	NO
Cc1ccc(N2CCN(c3ccc(-n4cnn(CC(O)(Cn5cncn5)c5ccc(F)cc5F)c4=O)cc3)CC2)cc1C (stereo not shown)	YES
Cc1ccc(N2CCN(c3ccc(-n4cnn([C@H](C)[C@](O)(Cn5cncn5)c5ccc(F)cc5F)c4=O)cc3)CC2)cc1C	NO
CCc1ccccc1N1CCN(c2ccc(-n3cnn(CC(O)(Cn4cncn4)c4ccc(F)cc4F)c3=O)cc2)CC1 (stereo not shown)	NO
Cc1nn(CC(O)(Cn2cncn2)c2ccc(F)cc2F)c(=O)n1-c1ccc(N2CCN(c3ccc(F)cc3)CC2)cc1 (stereo not shown)	NO
O=c1n(-c2ccc(N3CCN(c4ccc(F)c(Cl)c4)CC3)cc2)cnn1CC(O)(Cn1cncn1)c1ccc(F)cc1F (stereo not shown)	YES
C[C@@H](n1ncn(-c2ccc(N3CCN(c4ccc(F)c(Cl)c4)CC3)cc2)c1=O)[C@](O)(Cn1cncn1)c1ccc(F)cc1F	NO
C[C@@H](n1ncn(-c2ccc(N3CCN(c4cccc(C(F)(F)F)c4)CC3)cc2)c1=O)[C@](O)(Cn1cncn1)c1ccc(F)cc1F	NO
O=c1n(-c2ccc(N3CCN(c4ccc(F)cc4Cl)CC3)cc2)cnn1CC(O)(Cn1cncn1)c1ccc(F)cc1F (stereo not shown)	YES
O=c1n(-c2ccc(N3CCN(c4ccc([N+](=O)[O-])cc4[N+](=O)[O-])CC3)cc2)cnn1CC(O)(Cn1cncn1)c1ccc(F)cc1F (stereo not shown)	NO
C[C@@H](n1ncn(-c2ccc(N3CCN(c4ccccc4)CC3)cc2)c1=O)[C@@](O)(Cn1cncn1)c1ccc(F)cc1F	NO

###

System: Candida
protocol_summary: In vitro MIC, NCCLS M27A, Candida species
Format: cell-based
Design: unit not given beside the values
details: Candida albicans strain Y-01-19
Listed molecules paired with reported MIC, Candida albicans Y-01-19
value_kind: MIC, Candida albicans Y-01-19

molecule	value_kind	result
O=c1n(-c2ccc(N3CCN(c4ccc(F)c(F)c4)CC3)cc2)cnn1CC(O)(Cn1cncn1)c1ccc(F)cc1F (stereo not drawn) [Compound 55]	MIC, Candida albicans Y-01-19	0.03
Cc1ccc(N2CCN(c3ccc(-n4cnn(CC(O)(Cn5cncn5)c5ccc(F)cc5F)c4=O)cc3)CC2)c(C)c1 (stereo not drawn) [Compound 54]	MIC, Candida albicans Y-01-19	0.12
CCc1ccccc1N1CCN(c2ccc(-n3c(C)nn([C@H](C)[C@](O)(Cn4cncn4)c4ccc(F)cc4F)c3=O)cc2)CC1 [Compound 31]	MIC, Candida albicans Y-01-19	0.12
Cc1ccc(Cl)cc1N1CCN(c2ccc(-n3cnn([C@H](C)[C@@](O)(Cn4cncn4)c4ccc(F)cc4F)c3=O)cc2)CC1 [Compound 22]	MIC, Candida albicans Y-01-19	1.00
Cc1nn([C@H](C)[C@@](O)(Cn2cncn2)c2ccc(F)cc2F)c(=O)n1-c1ccc(N2CCN(c3ccccc3F)CC2)cc1 [Compound 26]	MIC, Candida albicans Y-01-19	1.00
Cc1ccc(N2CCN(c3ccc(-n4cnn([C@H](C)[C@](O)(Cn5cncn5)c5ccc(F)cc5F)c4=O)cc3)CC2)c(C)c1 [Compound 19]	MIC, Candida albicans Y-01-19	1.00
